- test-protocol: Protein binding in human serum incubated for 4 hrs by equilibrium dialysis based LC-MS/MS analysis
- Assay type: ADME, cell-free
- conditions: read-out: PB (converted)
Numbered stars: 1 amine (or outer) side, 2 acyl side, 3 side chain; on linkers, the order of the positions; unused ones are H or OH. Square brackets hold non-standard residues; d marks the D form. Peptide text beside a SMILES is read from it. * marks the point of attachment. Benzenesulfonyl(4-Cl,3-CF3) = O=S(=O)(c1ccc(Cl)c(C(F)(F)F)c1)*; γGlu = O=C(O)[C@H](CCC(=O)[*:2])N[*:1]; 4Pal = N[C@@H](Cc1ccncc1)C(=O)O; Tle = CC(C)(C)[C@H](N)C(=O)O; β3hP = O=C(O)C[C@@H]1CCCN1
readout-type: fraction unbound at 4 h

Kindly note the recorded fraction unbound at 4 h for CC(C)(C)[C@H](NC(=O)[C@H](Cc1ccncc1)NC(=O)CNC(=O)CC[C@H](NS(=O)(=O)c1ccc(Cl)c(C(F)(F)F)c1)C(=O)O)C(=O)N1CCC[C@H]1CC(N)=O ({Benzenesulfonyl(4-Cl,3-CF3)-γGlu}-G[4Pal][Tle][β3hP]-NH2) , which is 0.266
